ASSAY TEXT: in vivo
ASSAY SETUP: mouse, cancer cell lines
Description: Toxicity in cancer cells containing hollow fiber implanted mouse

>  <QUERY SMILES>
CCN(CC)CCCCNc1c2ccccc2[n+](C)c2c1[nH]c1ccccc12.[Cl-]

>  <MTD>
50 mg/kg

$$$$
>  <QUERY SMILES>
C[n+]1c2ccccc2c(Nc2ccc(N3CCCCC3)cc2)c2[nH]c3ccccc3c21.[Cl-]

>  <MTD>
160 mg/kg

$$$$
>  <QUERY SMILES>
C[n+]1c2ccccc2c(NC2CCNCC2)c2[nH]c3ccccc3c21.[Cl-]

>  <MTD>
25 mg/kg

$$$$

---

ASSAY TEXT: physchem
Description: Dissociation constant, pKa of the compound by UV-visible spectroscopy

>  <COMPOUND>
CCN(CC)CCCC(C)Nc1c2ccccc2[n+](C)c2c1[nH]c1ccccc12 (stereo not given)

>  <pKa>
11.4

$$$$
>  <COMPOUND>
C[n+]1c2ccccc2c(Nc2ccccc2)c2[nH]c3ccccc3c21

>  <pKa>
10.6

$$$$
>  <COMPOUND>
CCN(CC)CCNc1c2ccccc2[n+](C)c2c1[nH]c1ccccc12

>  <pKa>
11.6

$$$$
>  <COMPOUND>
C[n+]1c2ccccc2c(NC2CCNCC2)c2[nH]c3ccccc3c21.[Cl-]

>  <pKa>
11.8

$$$$
>  <COMPOUND>
C[n+]1c2ccccc2c(NC2CCN(Cc3ccccc3O)CC2)c2[nH]c3ccccc3c21

>  <pKa>
11.6

$$$$
>  <COMPOUND>
CC(C)CN1CCC(Nc2c3ccccc3[n+](C)c3c2[nH]c2ccccc23)CC1

>  <pKa>
11.6

$$$$
>  <COMPOUND>
C[n+]1c2ccccc2c(NCCCN2CCCCC2)c2[nH]c3ccccc3c21

>  <pKa>
11.7

$$$$
>  <COMPOUND>
CN(C)CC(C)(C)CNc1c2ccccc2[n+](C)c2c1[nH]c1ccccc12

>  <pKa>
11.7

$$$$
>  <COMPOUND>
CCN(CC)CCCCNc1c2ccccc2[n+](C)c2c1[nH]c1ccccc12.[Cl-]

>  <pKa>
11.6

$$$$
>  <COMPOUND>
CCN(CC)CCCNc1c2ccccc2[n+](C)c2c1[nH]c1ccccc12

>  <pKa>
11.6

$$$$

---

ASSAY TEXT: physchem

>  <COMPOUND>
CCN(CC)Cc1ccc(Nc2c3ccccc3[n+](C)c3c2[nH]c2ccccc23)cc1O

>  <pKa>
10.8

$$$$
>  <COMPOUND>
CC(CN(C)C)Nc1c2ccccc2[n+](C)c2c1[nH]c1ccccc12 (stereo unspecified)

>  <pKa>
11.6

$$$$
>  <COMPOUND>
CCN(CC)CCCNc1c2ccc(Cl)cc2[n+](C)c2c1[nH]c1ccccc12

>  <pKa>
11.2

$$$$
>  <COMPOUND>
C[n+]1c2cc(Cl)ccc2c(NC2CCNCC2)c2[nH]c3ccccc3c21

>  <pKa>
11.1

$$$$
>  <COMPOUND>
C[n+]1c2cc(Cl)ccc2c(NC2CCNCC2)c2[nH]c3cc(Cl)ccc3c21

>  <pKa>
10.3

$$$$
>  <COMPOUND>
CN(C)CCNc1c2ccccc2[n+](C)c2c1[nH]c1ccccc12

>  <pKa>
11.6

$$$$

---

ASSAY TEXT: physchem
Below, each of the compounds is paired with its reported pKa value.
VALUE TYPE: pKa

>  <QUERY SMILES>
CN(C)CCCNc1c2ccccc2[n+](C)c2c1[nH]c1ccccc12

>  <ENDPOINT RESULT>
11.9

$$$$
>  <QUERY SMILES>
C[n+]1c2ccccc2c(Nc2ccc(N3CCCCC3)cc2)c2[nH]c3ccccc3c21.[Cl-]

>  <ENDPOINT RESULT>
10

$$$$
>  <QUERY SMILES>
C[n+]1c2ccccc2c(Nc2cccnc2)c2[nH]c3ccccc3c21

>  <ENDPOINT RESULT>
10.3

$$$$
>  <QUERY SMILES>
C[n+]1c2ccccc2c(NC2CCN(Cc3ccccc3)CC2)c2[nH]c3ccccc3c21

>  <ENDPOINT RESULT>
11.5

$$$$
>  <QUERY SMILES>
CC(C)NCCCNc1c2ccccc2[n+](C)c2c1[nH]c1ccccc12

>  <ENDPOINT RESULT>
11.5

$$$$
